Biological target: T1, human ARG1 (Homo sapiens, UniProt P05089)
T1 construct: Avi tag (N); His10 (after a GGG linker) (C); made in house; host or cells: E. coli BL21 (DE3)
T1 sequence (P05089 with tags, fused parts or gaps): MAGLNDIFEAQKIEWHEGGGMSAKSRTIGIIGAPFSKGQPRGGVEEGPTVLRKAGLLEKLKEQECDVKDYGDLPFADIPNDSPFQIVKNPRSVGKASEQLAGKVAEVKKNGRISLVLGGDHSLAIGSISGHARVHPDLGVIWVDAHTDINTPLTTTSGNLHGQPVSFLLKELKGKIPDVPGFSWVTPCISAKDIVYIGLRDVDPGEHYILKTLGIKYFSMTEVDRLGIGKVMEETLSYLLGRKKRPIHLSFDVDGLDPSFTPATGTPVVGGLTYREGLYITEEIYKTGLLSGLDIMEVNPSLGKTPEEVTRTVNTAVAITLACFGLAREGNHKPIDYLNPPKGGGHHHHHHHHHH
Assay: Bio-Layer Interferometry (OctetRED) binding, human ARG1
Conditions: Fab analyte up to 120 nM, screening assay on anti-His surface
reported property: Results, binding to human ARG1 (BLI)

[[record]]
molecule = "C0021155: anti-ARG2 antibody, VH SEQ ID NO: 262, VL SEQ ID NO: 267 (antibody, listed as Homo sapiens, V domains shown, C0021155) VH: EVQLLESGGGLVQPGGSLRLSCEASGFTFRYDYHVWVRQAPGKGLEWVSAISGSGGSTYYADPVKGRFTISRDNSKNTLYLQMNSLRAEDTAVYYCARLRADLGLYMDLWGRGTLVTVSS VL: RSVLTQPPSVSAAPGQKVTISCSGSSSNIGNHYVSWYQQLPGTAPKLLIYDTTVLSSGIPDRFSGSKSGTSATLGITGLQTGDEADYYCGTWDELTSNLVFGGGTRLTVL"
reported = "No binding observed"

[[record]]
molecule = "C0021065: anti-ARG2 antibody, VH SEQ ID NO: 72, VL SEQ ID NO: 77 (antibody, listed as Homo sapiens, V domains shown, C0021065) VH: EVQLLESGGGLVQPGGSLRLSCAASGFTFSSYAMSWVRQAPGKGPEWVSAISGFSPYYADSVKGRFTISRDNSRNTLYLQMNSLRAEDTAVYYCARLRADLGLYMDLWGRGTLVTVSS VL: QSVLTQPPSVSAAPGQKVTISCSGSSSNIGNHYVSWYQQLPGTAPKLLIYDTDHMASGIPDRFSGSKSGTSATLGITGLQTGDEADYYCGTWDSSLSALVFGGGTKLTVL"
reported = "No binding observed"

